- PROTOCOL_TEXT: in vivo
- CONDITION_SUMMARY: nude, mouse, iv, 3.7 MBq, total radioactivity, kidney uptake
MEASUREMENT_KIND: tissue uptake at 1 h (%ID/g)
Numbers only here, please. The scale is %ID/g.

Query block: Supply measured tissue uptake at 1 h of N=C(N)NCCC[C@@H]1NC(=O)[C@H](CCCCNC(=O)CC[C@H](NC(=S)Nc2ccc(C[C@H]3CN(CC(=O)O)CCN(CC(=O)O)CCN3CC(=O)O)cc2)C(=O)NCCCC[C@@H]2NC(=O)[C@@H](Cc3ccc(O)cc3)NC(=O)[C@H](CC(=O)O)NC(=O)CNC(=O)[C@H](CCCNC(=N)N)NC2=O)NC(=O)[C@@H](Cc2ccc(O)cc2)NC(=O)[C@H](CC(=O)O)NC(=O)CNC1=O [^68Ga-NOTA-RGD2, metal not drawn] in your reply.
Result block: 4.6

---

- PROTOCOL_TEXT: in vivo
- CONDITION_SUMMARY: female, nude, mouse, 3.7 MBq, total radioactivity, uptake values in the other major organs
MEASUREMENT_KIND: tissue uptake at 1 h

Query block: Identify the reported tissue uptake at 1 h for the following entry. N=C(N)NCCC[C@@H]1NC(=O)[C@H](CCCCNC(=O)CC[C@H](NC(=S)Nc2ccc(C[C@H]3CN(CC(=O)O)CCN(CC(=O)O)CCN3CC(=O)O)cc2)C(=O)NCCCC[C@@H]2NC(=O)[C@@H](Cc3ccc(O)cc3)NC(=O)[C@H](CC(=O)O)NC(=O)CNC(=O)[C@H](CCCNC(=N)N)NC2=O)NC(=O)[C@@H](Cc2ccc(O)cc2)NC(=O)[C@H](CC(=O)O)NC(=O)CNC1=O [^68Ga-NOTA-RGD2, metal not drawn]
Result block: ≤ 1 %ID/g
